System: Candida albicans
Test: MIC against C. albicans (NCCLS broth dilution)
Assay type: cell-based
Conditions: Candida albicans; Table 1; over 90% reduction of growth, 24-168 h at 35° C.; read-out: Minimum inhibitory concentration, C. albicans
Source text: To determine the antifungal activity of these compounds we screened for their minimum inhibitory concentrations (MIC) against the major dermatophytes that cause onychomycosis, T. rubrum and T. mentagrophytes, and against the yeasts and molds C. albicans, C. neoformans and A. fumigatus to test for their broad spectrum activity. The antifungal agent ciclopirox, currently in use for the topical treatment of onychomycosis, was used as a reference. […]

- COMPOUND: "OB1OCCc2cc(F)ccc21"
  MIC [µg/mL]: 64
- COMPOUND: "Fc1ccc2c(c1)COB2c1ccoc1"
  MIC [µg/mL]: 4
- COMPOUND: "C(=Cc1ccccc1)B1OCc2ccccc21 [10a, 1,3-Dihydro-1-styryl-2,1-benzoxaborole]"
  MIC [µg/mL]: 2
- COMPOUND: "Fc1ccc2c(c1)COB2C=Cc1ccccc1 [10b]"
  MIC [µg/mL]: 0.5
- COMPOUND: "Cc1cscc1B1OCc2cc(F)ccc21"
  MIC [µg/mL]: 1
- COMPOUND: "OB1OCc2cc(F)ccc21 [19b]"
  MIC [µg/mL]: 0.5

----------
test system: Aspergillus fumigatus; assay: MIC against A. fumigatus (NCCLS broth dilution); type: cell-based; details: Aspergillus fumigatus; Table 1; over 90% reduction of growth, 24-168 h at 35° C.; read-out: Minimum inhibitory concentration, A. fumigatus
// MIC lookup, one value per entry
RECORDED ENDPOINT: MIC (µg/mL)

- COMPOUND: "Fc1ccc2c(c1)COB2C=Cc1ccccc1 [10b]"
  TARGET: "Aspergillus fumigatus"
  RECORDED ENDPOINT: "MIC"
  MEASURED VALUE: 1
- COMPOUND: "c1ccc(B2OCc3ccccc32)cc1 [9a, 1,3-Dihydro-1-phenyl-2,1-benzoxaborole]"
  TARGET: "Aspergillus fumigatus"
  RECORDED ENDPOINT: "MIC"
  MEASURED VALUE: 4
- COMPOUND: "OB1OCCc2cc(F)ccc21 [compound 24]"
  TARGET: "Aspergillus fumigatus"
  RECORDED ENDPOINT: "MIC"
  MEASURED VALUE: 32
- COMPOUND: "Fc1ccc2c(c1)COB2c1ccoc1 [compound 12]"
  TARGET: "Aspergillus fumigatus"
  RECORDED ENDPOINT: "MIC"
  MEASURED VALUE: 4
- COMPOUND: "Cc1cc(C2CCCCC2)n(O)c(=O)c1 [Ciclopirox, reference compound]"
  TARGET: "Aspergillus fumigatus"
  RECORDED ENDPOINT: "MIC"
  MEASURED VALUE: 1
- COMPOUND: "C=CB1OCc2cc(F)ccc21 [compound 11]"
  TARGET: "Aspergillus fumigatus"
  RECORDED ENDPOINT: "MIC"
  MEASURED VALUE: 2
- COMPOUND: "Fc1ccc2c(c1)COB2c1ccsc1 [compound 13]"
  TARGET: "Aspergillus fumigatus"
  RECORDED ENDPOINT: "MIC"
  MEASURED VALUE: 1
- COMPOUND: "Fc1ccc2c(c1)COB2c1cccnc1 [compound 15]"
  TARGET: "Aspergillus fumigatus"
  RECORDED ENDPOINT: "MIC"
  MEASURED VALUE: 16
- COMPOUND: "Fc1ccc2c(c1)COB2c1ccccc1 [9b]"
  TARGET: "Aspergillus fumigatus"
  RECORDED ENDPOINT: "MIC"
  MEASURED VALUE: 2
- COMPOUND: "C(=Cc1ccccc1)B1OCc2ccccc21 [10a, 1,3-Dihydro-1-styryl-2,1-benzoxaborole]"
  TARGET: "Aspergillus fumigatus"
  RECORDED ENDPOINT: "MIC"
  MEASURED VALUE: 4
- COMPOUND: "OB1OCc2cc(F)ccc21 [19b]"
  TARGET: "Aspergillus fumigatus"
  RECORDED ENDPOINT: "MIC"
  MEASURED VALUE: 0.25
- COMPOUND: "Cc1cscc1B1OCc2cc(F)ccc21 [compound 14]"
  TARGET: "Aspergillus fumigatus"
  RECORDED ENDPOINT: "MIC"
  MEASURED VALUE: 1

----------
// melting point lookup, one value per entry

- MOLECULE: "Fc1ccc2c(c1)COB2c1ccccc1"
  melting point: "90 to 99 °C"
- MOLECULE: "Fc1ccc2c(c1)COB2c1cccc(Cl)c1"
  melting point: "112 to 114 °C"
- MOLECULE: "Fc1ccc2c(c1)COB2c1cccnc1"
  melting point: "210 to 212 °C"
- MOLECULE: "Fc1ccc2c(c1)COB2c1ccsc1"
  melting point: "33 to 35 °C"
- MOLECULE: "Fc1ccc2c(c1)COB2C=Cc1ccccc1 [10b]"
  melting point: "84 to 86 °C"
- MOLECULE: "Fc1cccc(B2OCc3cc(F)ccc32)c1"
  melting point: "80 to 82 °C"
- MOLECULE: "Fc1ccc(B2OCc3ccccc32)cc1"
  melting point: "53 to 55 °C"
- MOLECULE: "C(=Cc1ccccc1)B1OCc2ccccc21 [10a, 1,3-Dihydro-1-styryl-2,1-benzoxaborole]"
  melting point: "57 to 59 °C"
- MOLECULE: "Fc1ccc(B2OCc3cc(F)ccc32)cc1"
  melting point: "75 to 77 °C"
- MOLECULE: "Cc1cscc1B1OCc2cc(F)ccc21"
  melting point: "51 to 53 °C"
- MOLECULE: "Cc1ccc(B2OCc3cc(F)ccc32)cc1"
  melting point: "48 to 49 °C"
- MOLECULE: "Cc1cccc(B2OCc3cc(F)ccc32)c1"
  melting point: "48 to 49 °C"

----------
tested on: Candida albicans; test: MIC against C. albicans (NCCLS broth dilution); type: cell-based; settings: Candida albicans; Table 1; over 90% reduction of growth, 24-168 h at 35° C.; read-out: Minimum inhibitory concentration, C. albicans

- MOLECULE: "Fc1ccc2c(c1)COB2c1ccccc1"
  MIC [µg/mL]: 0.5
- MOLECULE: "C=CB1OCc2cc(F)ccc21"
  MIC [µg/mL]: 1
- MOLECULE: "Fc1ccc2c(c1)COB2c1cccnc1"
  MIC [µg/mL]: 4
- MOLECULE: "c1ccc(B2OCc3ccccc32)cc1 [9a, 1,3-Dihydro-1-phenyl-2,1-benzoxaborole]"
  MIC [µg/mL]: 4
- MOLECULE: "Fc1ccc2c(c1)COB2c1ccsc1"
  MIC [µg/mL]: 1
- MOLECULE: "Cc1cc(C2CCCCC2)n(O)c(=O)c1 [Ciclopirox, reference compound]"
  MIC [µg/mL]: 0.5

----------
test: Water solubility; assay type: physicochemical

- MOLECULE: "OB1OCc2cc(Cl)ccc21 [drawing 89]"
  solubility: "> 100 µg/mL"
- MOLECULE: "OB1OCc2cc(F)ccc21 [drawing 88]"
  solubility: "> 100 µg/mL"

----------
// MIC lookup, one value per entry
system: Trichophyton mentagrophytes; assay: MIC against T. mentagrophytes (NCCLS broth dilution); format: cell-based; settings: Trichophyton mentagrophytes; Table 1; over 90% reduction of growth, 24-168 h at 35° C.; read-out: Minimum inhibitory concentration, T. mentagrophytes
RECORDED ENDPOINT: MIC (mg/L)

- COMPOUND: "Fc1ccc2c(c1)COB2c1ccoc1"
  TARGET: "Trichophyton mentagrophytes"
  RECORDED ENDPOINT: "MIC"
  OUTPUT UNIT: "mg/L"
  MEASURED VALUE: 4
- COMPOUND: "Fc1ccc2c(c1)COB2c1ccsc1"
  TARGET: "Trichophyton mentagrophytes"
  RECORDED ENDPOINT: "MIC"
  OUTPUT UNIT: "mg/L"
  MEASURED VALUE: 4
- COMPOUND: "Fc1ccc2c(c1)COB2C=Cc1ccccc1 [10b]"
  TARGET: "Trichophyton mentagrophytes"
  RECORDED ENDPOINT: "MIC"
  OUTPUT UNIT: "mg/L"
  MEASURED VALUE: 2
- COMPOUND: "Cc1cc(C2CCCCC2)n(O)c(=O)c1 [Ciclopirox, reference compound]"
  TARGET: "Trichophyton mentagrophytes"
  RECORDED ENDPOINT: "MIC"
  OUTPUT UNIT: "mg/L"
  MEASURED VALUE: 0.5
- COMPOUND: "Fc1ccc2c(c1)COB2c1ccccc1"
  TARGET: "Trichophyton mentagrophytes"
  RECORDED ENDPOINT: "MIC"
  OUTPUT UNIT: "mg/L"
  MEASURED VALUE: 2
- COMPOUND: "OB1OCc2cc(F)ccc21 [19b]"
  TARGET: "Trichophyton mentagrophytes"
  RECORDED ENDPOINT: "MIC"
  OUTPUT UNIT: "mg/L"
  MEASURED VALUE: 1
- COMPOUND: "C(=Cc1ccccc1)B1OCc2ccccc21 [10a, 1,3-Dihydro-1-styryl-2,1-benzoxaborole]"
  TARGET: "Trichophyton mentagrophytes"
  RECORDED ENDPOINT: "MIC"
  OUTPUT UNIT: "mg/L"
  MEASURED VALUE: 8
- COMPOUND: "c1ccc(B2OCc3ccccc32)cc1 [9a, 1,3-Dihydro-1-phenyl-2,1-benzoxaborole]"
  TARGET: "Trichophyton mentagrophytes"
  RECORDED ENDPOINT: "MIC"
  OUTPUT UNIT: "mg/L"
  MEASURED VALUE: 4
- COMPOUND: "Fc1ccc2c(c1)COB2c1cccnc1"
  TARGET: "Trichophyton mentagrophytes"
  RECORDED ENDPOINT: "MIC"
  OUTPUT UNIT: "mg/L"
  MEASURED VALUE: 32
- COMPOUND: "C=CB1OCc2cc(F)ccc21"
  TARGET: "Trichophyton mentagrophytes"
  RECORDED ENDPOINT: "MIC"
  OUTPUT UNIT: "mg/L"
  MEASURED VALUE: 2
- COMPOUND: "Cc1cscc1B1OCc2cc(F)ccc21"
  TARGET: "Trichophyton mentagrophytes"
  RECORDED ENDPOINT: "MIC"
  OUTPUT UNIT: "mg/L"
  MEASURED VALUE: 2
- COMPOUND: "OB1OCCc2cc(F)ccc21"
  TARGET: "Trichophyton mentagrophytes"
  RECORDED ENDPOINT: "MIC"
  OUTPUT UNIT: "mg/L"
  MEASURED VALUE: 32
